Experiment: Protein binding in plasma (unknown origin)
valueType: fraction unbound
Reply briefly: the number, and no unit.

# query: fraction unbound of entry O=C(c1ccc(OCCN2CCCCC2)cc1)c1c(-c2ccc(O)cc2)sc2cc(O)ccc12
0.05

Taken from ChEMBL document CHEMBL3525984.
